Test system: HCT116;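 further: Luminescence-based viability readout, five doses per compound, normalized against on-plate DMSO and empty-well controls, followed by dose-response curve fitting for every drug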
PROTOCOL DETAILS: efficacy (fitted maximal change in viability relative to DMSO control); higher = less cytotoxic (negative = loss of viability)
EXPERIMENTAL CONTEXT: 48 h
Where a name gives a salt, the structure may show the parent alone.

{"columns": ["COMPOUND", "efficacy"],
 "data": [
  ["CCOP(=O)(OCC)C(C)NC(=O)N(CCCl)N=O (stereo unspecified)", "7.5%"],
  ["O=C(/C=C/N1C[C@H]2C[C@@H]1CN2c1ccccn1)c1ccccc1O", "-9.44%"],
  ["O=C(Nc1ccccc1Br)N[C@@H]1CCN(c2ccc(C(F)(F)F)cn2)C1", "-39.8%"],
  ["CNNCc1ccc(C(=O)NC(C)C)cc1 [Procarbazine hydrochloride]", "-10.4%"],
  ["CC(C)[C@@H](C[S+](=O)([O-])C(C)C)N1C(=O)[C@@](C)(CC(=O)O)C[C@H](c2cccc(Cl)c2)[C@H]1c1ccc(Cl)cc1", "-84.7%"],
  ["CN1CCN(Cc2ccc(Nc3ncc(Cl)/c(=N\\c4ccccc4[S+](=O)([O-])N(C)C)[nH]3)cc2)CC1", "-65.8%"],
  ["FC(F)(F)c1ccc(C/N=c2\\ccc(Cc3c[nH]c4ncccc34)c[nH]2)cc1", "-76.1%"],
  ["CC1=C2N=C([NH]C2=CC(=C1)N3CCOCC3)\\C4=C(NC[C@@H](O)C5=CC=CC(=C5)Cl)\\C=C/NC4=O", "-93.9%"],
  ["CO[C@@H]1[C@H](N(C)C(=O)c2ccccc2)C[C@H]2O[C@]1(C)n1c3ccccc3c3c4c(c5c6ccccc6n2c5c31)C(=O)NC4", "-62.7%"],
  ["C=C1C(=O)OC2/C=C(/C)CC/C=C(/C)CCC12 (stereo unspecified) [Costunolide]", "-86.2%"],
  ["O=C(Nc1c(Cl)cncc1Cl)c1ccc(OC(F)F)c(OCC2CC2)c1", "-20.6%"],
  ["O=C(NOCC(O)CO)c1ccc(F)c(F)c1Nc1ccc(I)cc1F (stereo unspecified)", "-68.6%"],
  ["Cc1nn(Cc2ccccc2Cl)c(C)c1CN(C)CC(O)COc1ccc(Cl)cc1 (stereo unspecified)", "-92.3%"],
  ["O=C(CCNC(=O)c1ccc(OC(F)(F)F)cc1)N[C@@H]1CCCc2ccccc21", "-57.7%"],
  ["COc1cccc(-c2cc(F)ccc2C2Cc3nc(N)nc(C)c3C(=O)N2)n1 (stereo unspecified)", "-64.3%"],
  ["Nc1nccn2c1c(-c1cc3cccc(Cl)c3[nH]1)nc2[C@H]1CC[C@H](C(=O)O)CC1", "-65.8%"]
]}
